Test system: Vaccinia virus
Assay: Antiviral activity against Vaccinia virus LIVP harboring GFP infected in African green monkey CV1 cells assessed as virus titer preincubated with cells for 4 hrs followed by viral infection measured after 48 hrs by gentian violet staining-based microscopic analysis
Assay type: functional
Conditions: Orthopoxvirus vaccinia, CV-1
Measured parameter: IC50

A selection of reference data follows.
CCN(CC)CCCNCCn1c2ccccc2c2nc3ccccc3nc21; < 1 µM
COc1ccc2c(c1)c1nc3ccccc3nc1n2CCN1CCCCC1; 5 µM
CN(C)CCCNC(=O)Cn1c2ccccc2c2nc3ccccc3nc21; 10 µM
c1ccc2nc3c(nc2c1)c1ccccc1n3CCNCCCN1CCOCC1; 19 µM

Next, consider the following compound.
Measured on Vaccinia virus, CN(C)CCCNCCn1c2ccccc2c2nc3ccccc3nc21 has a documented IC50 of 22 µM
